Data origin: ChEMBL document CHEMBL3433997

For each record, write down the corresponding inhibition.
target: Glucose transporter (Leishmania mexicana); test: ST_JUDE_LEISH: Cytotoxicity at 2uM final concentration against transgenic Leishmania Mexicana promastigotes LmGT2 that are glucose transport deficient and complemented with the L. Mexicana glucose transporter 2. Activity is measured by DNA content using SYBR green in vitro; format: functional
One number for each entry, in %.

| COMPOUND | UNIT_TEXT | inhibition |
| --- | --- | --- |
| CCN1CCC(N2CCC(C(=O)Nc3cccc(-c4cccc(Cl)c4)c3)CC2)CC1 | % | 2.7 |
| Cc1cc(-c2ccc(NC(=O)Nc3ccc4nccc(N5CCN(C)CC5)c4c3)cc2C)cc(C)n1 | % | 8.51 |
| COc1ccc2c(=O)ccn(CCN3CCC(NCc4ccc5c(n4)NC(=O)CS5)CC3)c2c1 | % | 3.24 |

For every item below, please supply its inhibition.
1. Cc1noc(C)c1-c1ccc2c(Nc3ccc(Cl)cc3)c(C(N)=O)cnc2c1
2. CCSc1nc2sc3c(c2c(=O)n1-c1ccccc1)CCN(C)C3

1: 12.9; 2: -0.96

For every item below, please supply its inhibition.
1. COc1ccc(N2C(=O)C3C(C2=O)C2(C)c4ccccc4C3(C)c3ccccc32)c([N+](=O)[O-])c1 (centres undefined)
2. COc1cc(Cn2ccc3c4c(N)nc(N)nc4ccc32)cc(OC)c1OC
3. COc1ccc(CN(C)CC(O)COc2ccc(NC(=O)c3cccc4c(=O)c5cccc(OC)c5[nH]c34)cc2)cc1OC (centres undefined)

9.94
73.1
3.9

Kindly note the recorded inhibition for CCn1cc(C=C2Oc3c(ccc(O)c3CN3CCCCC3)C2=O)c2cc(OC)ccc21 , which is -0.31

* * *

For each record, write down the corresponding inhibition.
biological target: Glucose transporter (Leishmania mexicana) (UniProt O61059); experiment: ST_JUDE_LEISH: Cytotoxicity at 2uM final concentration against transgenic Leishmania Mexicana promastigotes LmGT2 that are glucose transport deficient and complemented with the L. Mexicana glucose transporter 2. Activity is measured by DNA content using SYBR green in vitro; type: functional
Give bare numbers, in %.

Recorded inhibition, per entry:
| COMPOUND | inhibition (%) |
| --- | --- |
| Cc1cccc(C)c1/N=C1\NC(=S)N(c2cccc(Cl)c2)C12CCC(C(C)(C)C)CC2 (centres undefined) | 0.24 |
| CC(CN(C)C)C(=O)Nc1ccc(-c2ccc(-c3nc4ccccc4[nH]3)s2)cc1 (centres undefined) | 6.24 |
| O=C(NCCN1CCCC1)c1ccc(-c2ccc(-c3nc4cc(C(F)(F)F)ccc4[nH]3)s2)cc1 | 3.38 |
| O=C(Nc1ccccc1)N1CCC(CN2CCOC(c3ccccc3)(c3ccccc3)C2)CC1 | 7.57 |
| Nc1nc(N)c2cc(CNc3ccc(Cl)c(Cl)c3)ccc2n1 | -0.28 |

For every item below, please supply its inhibition.
1. Cc1nc(-c2ccc(-c3ccc(C(=O)Nc4ccc(-n5ccnc5)c(N5CCN(C)CC5)c4)cc3)c(C)c2)no1
2. CCN(CC)CCNC(=O)c1ccc(NC(=O)c2ccc(-c3cc(NC(=O)CC4CCCC4)ccc3C)cc2)cc1
3. O=C(NCCCCN1CCC(c2ccc3c(c2OCCN2CCCC2=O)CCCC3)CC1)c1ccc(-c2ccc(C(F)(F)F)cc2)cc1
4. CCc1cc2c3c(N)nc(N)nc3ccc2n1CC

1: 0.79; 2: 2.4; 3: -0.45; 4: 39.4
